For each of the molecules below, state its logD.
Assay: Octanol/water partition coefficient
Format: physicochemical
Details: Log10(concentration in octanol phase/concentration in aqueous phase), aqueous buffer of pH 7
Give bare numbers.

| molecule | logD |
| --- | --- |
| NC(=O)CC[C@@H]1NC(=O)[C@H](Cc2ccccc2)NC(=O)[C@H](Cc2ccc(O)cc2)NC(=O)[C@@H](N)CSSC[C@@H](C(=O)N2CCC[C@H]2C(=O)N[C@@H](CCCN=C(N)N)C(=O)NCC(N)=O)NC(=O)[C@H](CC(N)=O)NC1=O [[Arg-8]-Vasopressin] | -4.8 |

Read the next record carefully.
Q: Need logD, item CC(C(=O)O)c1ccc(CC2CCCC2=O)cc1 (centres unmarked) [loxoprofen sodium dihydrate]
Result: 0.8

Just for reference, patent US12201691B2 is where these values come from.
